Data provenance: the supplement of paper PMC12494721

- Test system: Ruminococcus gnavus DSM 108212
- measurementProtocol: fold change of 2-Phenylethylamine concentration vs plate DMSO controls (fold change (ratio)); higher = more amine produced, active = hit call of the paper (significant change in both replicates, either direction)
- conditionContext: incubation time: 27 h, anaerobic, 37 °C
Counter-ions that a name gives are not always drawn.
measure: fold change of 2-Phenylethylamine concentration
Please state the value as a number alone, without comment.

Briefly, fold change of 2-Phenylethylamine concentration measured for CC(COc1ccccc1)N(CCCl)Cc1ccccc1 (configuration not stated) [Phenoxybenzamine hydrochloride] (20 µM) : 1.05

Noted for Cc1ncc([N+](=O)[O-])n1CC(C)O (configuration not stated) [Secnidazole] (20 µM) : its fold change of 2-Phenylethylamine concentration reads 0.0431

The compound listed as C[C@]12CC[C@@H]3c4ccc(O)cc4CC[C@H]3[C@@H]1CC[C@@H]2O [Estradiol-17 beta] (20 µM) has a reported fold change of 2-Phenylethylamine concentration of 1.04

The value of fold change of 2-Phenylethylamine concentration measured for the compound CC(CN(C)C)C(C)(O)Cc1ccc(Cl)cc1 (configuration not stated) [Clobutinol hydrochloride] (20 µM) turned out to be 0.988

Lookup result for COc1c(O[C@@H]2O[C@H](CO)[C@@H](O)[C@H](O)[C@H]2O)cc2c(c1OC)-c1ccc(SC)c(=O)cc1[C@@H](NC(C)=O)CC2 [Thiocolchicoside] (20 µM) ; measured fold change of 2-Phenylethylamine concentration: 1.01

Per the record, CC[C@H]1OC(=O)[C@H](C)[C@@H](O[C@H]2C[C@@](C)(OC)[C@@H](O)[C@H](C)O2)[C@H](C)[C@@H](O[C@@H]2O[C@H](C)C[C@H](N(C)C)[C@H]2O)[C@](C)(O)C[C@@H](C)CN(C)[C@H](C)[C@@H](O)[C@]1(C)O [Azithromycin] (20 µM) has fold change of 2-Phenylethylamine concentration of 0.115

The compound listed as Cc1scc2c1N(C(=O)CN1CCN(C)CC1)c1ccccc1NC2=O [Telenzepine dihydrochloride] (20 µM) has a reported fold change of 2-Phenylethylamine concentration of 0.964
